experimental_readout: melting point

> print(dat)
                                   compound  experimental.readout  reported.measurement
1  Cc1cc(Nc2ccnc(Nc3ccc(S(=O)(=O)N(C)C4CCN(Cc5cncs5)CC4)cc3)n2)ccc1F [Example 132]         melting point         196 to 197 °C
2  CCN1CCC(N(C)S(=O)(=O)c2ccc(Nc3nccc(Nc4ccc(F)cc4)n3)cc2)CC1 [Example 10]         melting point         162 to 163 °C
3  CS(=O)(=O)CCN1CCC(NS(=O)(=O)c2ccc(Nc3nccc(Nc4ccc(F)cc4)n3)cc2)CC1 [Example 126]         melting point                183 °C

* * *

The following compounds are shown together with reported melting point values.
Structures can show the parent of a compound that is named as a salt.
experimental_readout: melting point

> print(dat)
                                   compound  reported.measurement
1  CN(C1CCN(CCC(F)(F)F)CC1)S(=O)(=O)c1ccc(Nc2nccc(Nc3ccc(F)c(F)c3)n2)cc1 [Example 109]         202 to 203 °C
2  Cc1cc(Nc2ccnc(Nc3ccc(S(=O)(=O)N(C)C4CCN(Cc5cnn(C)c5)CC4)cc3)n2)ccc1F [Example 135]         125 to 150 °C
3  CN(C1CCN(Cc2ccc(F)cc2)CC1)S(=O)(=O)c1ccc(Nc2nccc(Nc3ccc(F)cc3)n2)cc1 [Example 33]         129 to 131 °C
4  CN(C1CCN(CC(C)(C)O)CC1)S(=O)(=O)c1ccc(Nc2nccc(Nc3ccc(F)c(F)c3)n2)cc1 [Example 167]         234 to 235 °C
5  Cc1cc(Nc2ccnc(Nc3ccc(S(=O)(=O)N(C)C4CCNCC4)cc3)n2)ccc1F (as salt: hydrochloride)         215 to 220 °C
6  CN(C1CCN(Cc2cccs2)CC1)S(=O)(=O)c1ccc(Nc2nccc(Nc3ccc(F)cc3)n2)cc1 [Example 13]         175 to 176 °C

* * *

experimental_readout: melting point (°C)

> print(dat)
                                   compound  units.label  reported.measurement
1  CCNC1CCC(N(C)S(=O)(=O)c2ccc(Nc3nccc(Nc4ccc(F)cc4)n3)cc2)CC1 (centres unmarked) [Example 142]           °C                   188
2  CN1C2CCC1CC(N(C)S(=O)(=O)c1ccc(Nc3nccc(Nc4ccc(F)cc4)n3)cc1)C2 (centres unmarked)           °C                 184.5

* * *

The following molecules are shown together with reported melting point values.
experimental_readout: melting point

> print(dat)
                                   molecule  experimental.readout  reported.measurement
1  CN(C1CCN(CC(C)(C)O)CC1)S(=O)(=O)c1ccc(Nc2nccc(Nc3ccc(F)cc3)n2)cc1         melting point         216 to 217 °C
2  CN(C1CCN(CC(F)(F)F)CC1)S(=O)(=O)c1ccc(Nc2nccc(Nc3ccc(F)cc3)n2)cc1         melting point         201 to 202 °C
3  CN1CCC(N(C)S(=O)(=O)c2ccc(Nc3nc(Cl)cc(Nc4ccc(F)cc4)n3)cc2)CC1         melting point         140 to 142 °C
4  CN1CCC(N(C)C(=O)CNS(=O)(=O)c2ccc(Nc3nccc(Nc4ccc(F)cc4)n3)cc2)CC1         melting point       233 to 234.4 °C
5  Cc1cc(Nc2ccnc(Nc3ccc(S(=O)(=O)N(C)C4CCC(F)(F)CC4)cc3)n2)ccc1F         melting point         164 to 165 °C
6  CC(C)CCN1CCC(N(C)S(=O)(=O)c2ccc(Nc3nccc(Nc4ccc(F)cc4)n3)cc2)CC1         melting point         184 to 185 °C
7  CCOP(=O)(CCN1CCC(N(CCCN)S(=O)(=O)c2ccc(Nc3nccc(Nc4ccc(F)cc4)n3)cc2)CC1)OCC         melting point         125 to 130 °C
8  CCN(C1CCN(Cc2ccccc2)C1)S(=O)(=O)c1ccc(Nc2nccc(Nc3ccc(F)cc3)n2)cc1 (stereo not drawn)         melting point         125 to 127 °C
9  CCOP(=O)(CCN1CCC(N(C)S(=O)(=O)c2ccc(Nc3nccc(Nc4ccc(F)cc4)n3)cc2)CC1)OCC         melting point          95 to 100 °C

* * *

The following compounds are shown together with reported melting point values.
experimental_readout: melting point (°C)

> print(dat)
                                   compound  reported.measurement
1  CNC1CCC(N(CCN2CCCC2)S(=O)(=O)c2ccc(Nc3nccc(Nc4ccc(F)cc4)n3)cc2)CC1 (stereo not shown) [Example 146]                   189
2  CN(C)C1CCC(N(C)S(=O)(=O)c2ccc(Nc3nccc(Nc4ccc(F)cc4)n3)cc2)CC1 (stereo not shown) [Example 140]                   222
3  CCSCCN1CCC(NS(=O)(=O)c2ccc(Nc3nccc(Nc4ccc(F)cc4)n3)cc2)CC1                   194
4  C=CCN(C1CCN(C)CC1)S(=O)(=O)c1ccc(Nc2nccc(Nc3ccc(F)cc3)n2)cc1                   167
5  CCOP(=O)(CN1CCC(NS(=O)(=O)c2ccc(Nc3nccc(Nc4ccc(F)c(F)c4)n3)cc2)CC1)OCC                 137.8
6  CN1CCC(N(CC[C@H]2CCCN2)S(=O)(=O)c2ccc(Nc3nccc(Nc4ccc(F)cc4)n3)cc2)CC1                    85

* * *

The following molecules are shown together with reported melting point values.
Counter-ions that a name gives are not always drawn.
experimental_readout: melting point

> print(dat)
                                    molecule  reported.measurement
 1  NCCN(C1CCN(Cc2ccccc2)CC1)S(=O)(=O)c1ccc(Nc2nccc(Nc3ccc(F)cc3)n2)cc1 (as salt: hydrochloride)         230 to 232 °C
 2  CN(C1CCC(=O)CC1)S(=O)(=O)c1ccc(Nc2nccc(Nc3ccc(F)cc3)n2)cc1                203 °C
 3  CCOP(=O)(CCN1CCC(N(C)S(=O)(=O)c2ccc(Nc3nccc(Nc4ccc(F)c(F)c4)n3)cc2)CC1)OCC           93 to 96 °C
 4  CN(C1CCN(Cc2cc[n+]([O-])cc2)CC1)S(=O)(=O)c1ccc(Nc2nccc(Nc3ccc(F)cc3)n2)cc1         155 to 156 °C
 5  Cc1cc(Nc2ccnc(Nc3ccc(S(=O)(=O)N(C)C4CCN(Cc5cn[nH]c5)CC4)cc3)n2)ccc1F                224 °C
 6  CNCCN(C1CCN(C)CC1)S(=O)(=O)c1ccc(Nc2nccc(Nc3ccc(F)cc3)n2)cc1 (as salt: hydrochloride)                220 °C
 7  NCCN(C1CNC1)S(=O)(=O)c1ccc(Nc2nccc(Nc3ccc(F)cc3)n2)cc1 (as salt: hydrochloride)              > 220 °C
 8  CC(C)(O)CNCCN(C1CCN(Cc2ccccc2)CC1)S(=O)(=O)c1ccc(Nc2nccc(Nc3ccc(F)cc3)n2)cc1 (as salt: hydrochloride)                200 °C
 9  CN1CCC(N(C)S(=O)(=O)c2ccc(Nc3nccc(Nc4ccc(F)c(Cl)c4)n3)cc2)CC1         183 to 186 °C
10  NCCCN(C1CCNCC1)S(=O)(=O)c1ccc(Nc2nccc(Nc3ccc(F)cc3)n2)cc1 (as salt: hydrochloride)         245 to 247 °C
11  Cc1cc(Nc2ccnc(Nc3ccc(S(=O)(=O)N(C)C4CCN(Cc5cc[nH]c5)CC4)cc3)n2)ccc1F         134 to 139 °C

* * *

Structures can show the parent of a compound that is named as a salt.
The following compounds are shown together with reported melting point values.
experimental_readout: melting point

> print(dat)
                                   compound  experimental.readout  reported.measurement
1  CN(C1CCS(=O)(=O)C1)S(=O)(=O)c1ccc(Nc2nccc(Nc3ccc(F)cc3)n2)cc1 (centres unmarked) [Example 6]         melting point         236 to 240 °C
2  Cc1cc(CN2CCC(N(C)S(=O)(=O)c3ccc(Nc4nccc(Nc5ccc(F)c(F)c5)n4)cc3)CC2)no1 [Example 166]         melting point         204 to 206 °C
3  Cc1cc(Nc2ccnc(Nc3ccc(S(=O)(=O)N(CCN4CCCC4)C4CCN(C)CC4)cc3)n2)ccc1F [Example 87]         melting point          93 to 103 °C
4  O=S(=O)(c1ccc(Nc2nccc(Nc3ccc(F)cc3)n2)cc1)N(CCNCC(F)(F)F)C1CCN(Cc2ccccc2)CC1 [Example 103]         melting point         137 to 138 °C
5  CN(C1CCN(CCCC(F)(F)F)CC1)S(=O)(=O)c1ccc(Nc2nccc(Nc3ccc(F)cc3)n2)cc1 [Example 40]         melting point         166 to 167 °C
6  O=C(CNS(=O)(=O)c1ccc(Nc2nccc(Nc3ccc(F)cc3)n2)cc1)NC1CCOCC1 [Example 2]         melting point         253 to 254 °C
7  CN1CCC(N(CCN)S(=O)(=O)c2ccc(Nc3nccc(Nc4ccc(F)cc4)n3)cc2)CC1 (as salt: hydrochloride)         melting point                225 °C
8  CN(C)CCN(C1CCS(=O)(=O)C1)S(=O)(=O)c1ccc(Nc2nccc(Nc3ccc(F)cc3)n2)cc1 (centres unmarked) [Example 114]         melting point         162 to 165 °C
